Hey, just so you know, these numbers are from patent US20260130856A1.

Assay: In vivo pharmacokinetics study of carfilzomib formulations, plasma carfilzomib by LC-MS
Conditions: BALB/c nude, mouse, mice, intravenous via tail vein, 5.0 mg/kg

molecule	clearance, mL/min/kg
CC(C)C[C@H](NC(=O)[C@H](CCc1ccccc1)NC(=O)CN1CCOCC1)C(=O)N[C@@H](Cc1ccccc1)C(=O)N[C@@H](CC(C)C)C(=O)[C@@]1(C)CO1 [Free carfilzomib, carfilzomib]	170
